# Test system: recombinant human transglutaminase 2 (Homo sapiens, UniProt P21980)
# Sequence (P21980 whole entry): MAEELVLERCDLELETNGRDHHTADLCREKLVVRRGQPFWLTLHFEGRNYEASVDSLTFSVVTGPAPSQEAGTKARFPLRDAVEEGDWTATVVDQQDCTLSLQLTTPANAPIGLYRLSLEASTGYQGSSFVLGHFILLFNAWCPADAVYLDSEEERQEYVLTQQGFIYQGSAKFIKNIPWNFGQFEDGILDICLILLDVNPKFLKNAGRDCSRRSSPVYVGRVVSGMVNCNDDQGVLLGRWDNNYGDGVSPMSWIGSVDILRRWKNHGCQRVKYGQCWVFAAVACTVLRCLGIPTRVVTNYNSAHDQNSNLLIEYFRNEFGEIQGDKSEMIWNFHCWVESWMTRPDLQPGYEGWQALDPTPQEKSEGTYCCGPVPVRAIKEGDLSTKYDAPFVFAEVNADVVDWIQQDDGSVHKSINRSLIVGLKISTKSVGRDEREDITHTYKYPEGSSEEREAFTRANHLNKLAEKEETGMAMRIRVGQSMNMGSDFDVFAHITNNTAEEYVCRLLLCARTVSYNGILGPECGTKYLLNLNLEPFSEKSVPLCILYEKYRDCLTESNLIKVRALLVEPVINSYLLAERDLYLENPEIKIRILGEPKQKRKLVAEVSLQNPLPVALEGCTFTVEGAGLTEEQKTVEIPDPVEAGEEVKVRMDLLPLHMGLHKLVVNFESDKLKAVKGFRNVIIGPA
# Test summary: Transglutaminase assay (dansylcadaverine incorporation into dimethylcasein, DCC-assay)
# Experimental setup: recombinant human TG2 10 nM, dansylcadaverine/dimethylcasein, 37° C.
Experimental endpoint: IC50

Illustrative cases are given below, each with its answer.
>>> print(df.to_string())
                                   compound  experimental_endpoint          result
0  CCn1c(C(=O)N[C@@H](CC/C=C/C(=O)NC2CCCCC2)C(=O)Nc2cccn(CC(=O)NC34CC(C3)C4)c2=O)cc2ccccc21                   IC50    25 to 250 nM
1  COC(=O)/C=C/CC[C@H](NC(=O)c1c[nH]c(C(N)=O)c1)C(=O)Nc1cccn(CC(=O)NC23CC(C2)C3)c1=O                   IC50  250 to 1500 nM
2  COC(=O)/C=C/CC[C@H](NC(=O)c1ccnn1C)C(=O)Nc1cccn(CC(=O)NC23CC4(C)CC(C)(CC(C)(C4)C2)C3)c1=O                   IC50         < 25 nM
3  COC(=O)/C=C/CC[C@H](NC(=O)c1oc2ccccc2c1C)C(=O)Nc1cccn(CC(=O)N[C@H]2C[C@H]3CC[C@]2(C)C3(C)C)c1=O                   IC50    25 to 250 nM
4  COC(=O)/C=C/CC[C@H](NC(=O)c1cc2ccccc2s1)C(=O)Nc1cccn(CC(=O)NC2C3CC4CC(C3)CC2C4)c1=O (some centres unmarked)                   IC50         < 25 nM

# batch: return IC50 for each of the 6 compounds below
1. COC(=O)/C=C/CC[C@H](NC(=O)c1ccncc1)C(=O)Nc1cccn(CC(=O)NC2C3CC4CC(C3)CC2C4)c1=O (some centres unmarked)
2. COC(=O)/C=C/CC[C@H](NC(=O)[C@@H]1CCCN1C)C(=O)Nc1cccn(CC(=O)NC2C3CC4CC(C3)CC2C4)c1=O (some centres unmarked)
3. COC(=O)/C=C/CC[C@H](NC(=O)c1oc2ccccc2c1C)C(=O)Nc1cccn(CC(=O)N[C@@H]2C[C@H]3CC[C@]2(C)C3(C)C)c1=O
4. COC(=O)/C=C/CC[C@H](NC(=O)c1cn[nH]n1)C(=O)Nc1cccn(CC(=O)NC2C3CC4CC(C3)CC2C4)c1=O (some centres unmarked) [III-102]
5. COC(=O)/C=C/CC[C@H](NC(=O)c1oc2ccccc2c1C)C(=O)Nc1cccn(CC(=O)NC23CC4CC(CC(Br)(C4)C2)C3)c1=O
6. COC(=O)/C=C/CC[C@H](NC(=O)c1ccnn1C)C(=O)Nc1cccn(CC(=O)N[C@@H]2C[C@H]3CC[C@@H]2C3)c1=O

["< 25 nM", "25 to 250 nM", "< 25 nM", "25 to 250 nM", "< 25 nM", "< 25 nM"]
